Please provide measured growth at 0.01 µM for the entries that follow.
system: U-251; test: Growth inhibition of human U251 cells assessed as cell growth at 0.01 uM incubated for 48 hrs by sulforhodamine B assay relative to control; format: functional; settings: U-251, 48 h, read-out: Activity
Give the number first and the unit second.

Looking for the measured growth at 0.01 µM of `COc1cc(Cl)cc(-c2nn(-c3cccc(NC(=O)Nc4ccc(Cl)c(C(F)(F)F)c4)c3)cc2-c2ccncc2)c1` , can you help?
98%

Likewise for `O=C(Nc1cccc(-n2cc(-c3ccncc3)c(-c3cc(O)cc(Cl)c3)n2)c1)c1ccc(N2CCOCC2)c(C(F)(F)F)c1` ?
97%

Entry `COc1cc(Cl)cc(-c2nn(-c3cccc(NC(=O)c4cccc(C(F)(F)F)c4)c3)cc2-c2ccncc2)c1` please
94%

// repeat for `COc1cc(Cl)cc(-c2nn(-c3cccc(NC(=O)c4ccc(N5CCOCC5)c(C(F)(F)F)c4)c3)cc2-c2ccncc2)c1` and report
95%
